Origin of the recorded values: paper PMC2756588

Measured on: T1, Abp1, P15891
T1 sequence (P15891 535-592, looked up): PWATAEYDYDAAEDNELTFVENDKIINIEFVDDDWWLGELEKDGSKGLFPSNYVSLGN
Experiment description: SPOT array
Test settings: median of control spots 935
Outcome measure: SPOT intensity

INSERT INTO results (binder, val) VALUES
  ('FYHRPAPKPPVTKKV', 114);

[a] HRRRRVFSIPSLKSI
[b] KTRLRPAFIQQLWSS
[c] QRKSLRRPTLSKPAV
Sort the 3 binders by SPOT intensity; largest first, smallest last. Put the labels in the order asked and list them.
a, c, b
(a: 158, c: 78, b: 31)
